Measured EC50 of individual entries
- Target: UniProt:P11229
- Sequence (P11229 whole entry): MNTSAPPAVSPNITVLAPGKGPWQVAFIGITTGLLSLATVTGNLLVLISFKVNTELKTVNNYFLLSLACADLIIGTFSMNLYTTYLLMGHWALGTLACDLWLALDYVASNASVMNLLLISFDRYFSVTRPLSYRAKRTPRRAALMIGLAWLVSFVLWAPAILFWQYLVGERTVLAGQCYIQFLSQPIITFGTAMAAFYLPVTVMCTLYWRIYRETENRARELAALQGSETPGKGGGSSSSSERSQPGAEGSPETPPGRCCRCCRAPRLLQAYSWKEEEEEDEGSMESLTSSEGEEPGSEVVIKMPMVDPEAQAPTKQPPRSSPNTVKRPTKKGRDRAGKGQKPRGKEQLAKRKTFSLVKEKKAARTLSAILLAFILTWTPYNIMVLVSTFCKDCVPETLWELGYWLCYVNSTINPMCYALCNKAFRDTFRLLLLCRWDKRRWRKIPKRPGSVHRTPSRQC
- Experimental protocol: mAChR M1 cell-based functional assay: calcium mobilization, positive allosteric modulator mode (increase in EC20 acetylcholine response)
- Settings: Table 1; mAChR M1 cell-based functional assay, PAM mode; species not given; read-out: EC50
Quantity measured: EC50 (µM)

Molecule: CO[C@H]1CCCC[C@@H]1NC(=O)c1cc(Oc2ccc(C)nc2)c2sccc2n1
Measurement qualifier: >
Readout value: 10
//
Molecule: Cn1cc(-c2ccc(Oc3cc(C(=O)N[C@H]4CCCCC[C@@H]4O)nc4ccsc34)c(F)c2)cn1
Measurement qualifier: >
Readout value: 10
//
Molecule: Cc1ccc(Cc2cc(C(=O)N[C@H]3CCOC[C@@H]3O)nc3ccsc23)cn1
Measurement qualifier: =
Readout value: 0.08
//
Molecule: CO[C@H]1CCCC[C@@H]1NC(=O)c1cc(Cc2ccc(C)nc2)c2sccc2n1
Measurement qualifier: =
Readout value: 5.77
//
Molecule: Cn1cc(-c2ccc(Oc3cc(C(=O)N[C@H]4COCC[C@@H]4O)nc4ccsc34)c(F)c2)cn1
Measurement qualifier: =
Readout value: 7.79
//
Molecule: Cc1ccc(Cc2cc(C(=O)N[C@H]3CCCCC[C@@H]3O)nc3ccsc23)cn1
Measurement qualifier: =
Readout value: 0.117
//
Molecule: Cc1ccc(Oc2cc(C(=O)N[C@H]3CCC[C@@H]3O)nc3ccsc23)cn1
Measurement qualifier: >
Readout value: 10
//
Molecule: Cn1cc(-c2ccc(Oc3cc(C(=O)NC4CC[C@H]4O)nc4ccsc34)c(F)c2)cn1 (some centres unmarked)
Measurement qualifier: >
Readout value: 10
